These entries and their values trace back to patent US4973673A.

System: Petriellidium boydii IFO8073 | Read-out: MIC
assay-metric: MIC (µg/mL)

| compound-structure | value-modifier | experimental-value |
| --- | --- | --- |
| CN[C@@H]1[C@H](O)[C@@H](O)[C@H](O[C@H]2c3cc(C)c(C(=O)N[C@H](CO)C(=O)O)c(O)c3-c3c(cc4c(c3O)C(=O)c3cc(OC)cc(O)c3C4=O)[C@@H]2O)O[C@@H]1C | > | 100 |
| COc1cc(O)c2c(c1)C(=O)c1c(cc3c(c1O)-c1c(cc(C)c(C(=O)N[C@H](CO)C(=O)O)c1O)[C@H](O[C@@H]1O[C@H](C)[C@H](N(C)C)[C@H](O)[C@H]1O)[C@H]3O)C2=O | = | 100 |

----------
A collection of molecules and their measured MIC
# Test system: Trichophyton mentagrophytes D155
assay-metric: MIC (µg/mL)

| molecule | study-system | experimental-value |
| --- | --- | --- |
| CN[C@@H]1[C@H](O)[C@@H](O)[C@H](O[C@H]2c3cc(C)c(C(=O)N[C@H](CO)C(=O)O)c(O)c3-c3c(cc4c(c3O)C(=O)c3cc(OC)cc(O)c3C4=O)[C@@H]2O)O[C@@H]1C [Des-xylosyl BU-3608 FA-1] | Trichophyton mentagrophytes D155 | 12.5 |
| COc1cc(O)c2c(c1)C(=O)c1c(cc3c(c1O)-c1c(cc(C)c(C(=O)N[C@H](CO)C(=O)O)c1O)[C@H](O[C@@H]1O[C@H](C)[C@H](N(C)C)[C@H](O[C@@H]4OC[C@@H](O)[C@H](O)[C@H]4O)[C@H]1O)[C@H]3O)C2=O [N,N-dimethyl BU-3608 FA-2] | Trichophyton mentagrophytes D155 | 12.5 |
